- run_parameters: in DMSO, 303.15 K
result_type: solubility (mole fraction)
Give bare numbers.

Query block: Can you look up the measured solubility (mole fraction) of O=c1cc(CBr)c2ccccc2[nH]1 for me?
Result block: 0.0232

---

- run_parameters: in DMF, 298.15 K
result_type: solubility (mole fraction)
Answers are plain numbers.

Query block: Can you look up the measured solubility (mole fraction) of O=c1cc(CBr)c2ccccc2[nH]1 for me?
Result block: 0.00542

---

- run_parameters: in methanol, 288.15 K
result_type: solubility (mole fraction)
Give bare numbers.

Query block: Can you look up the measured solubility (mole fraction) of O=c1cc(CBr)c2ccccc2[nH]1 for me?
Result block: 0.000165

---

- run_parameters: in ethanol, 288.15 K
result_type: solubility (mole fraction)
Answers are plain numbers.

Query block: Can you look up the measured solubility (mole fraction) of O=c1cc(CBr)c2ccccc2[nH]1 for me?
Result block: 0.000227

---

- run_parameters: in NMP, 273.15 K
result_type: solubility (mole fraction)
Give bare numbers.

Query block: Can you look up the measured solubility (mole fraction) of O=c1cc(CBr)c2ccccc2[nH]1 for me?
Result block: 0.0044

---

- run_parameters: in toluene, 293.15 K
result_type: solubility (mole fraction)
Numbers only.

Query block: Can you look up the measured solubility (mole fraction) of O=c1cc(CBr)c2ccccc2[nH]1 for me?
Result block: 3.2e-05

---

- run_parameters: in toluene, 273.15 K
result_type: solubility (mole fraction)
Give bare numbers.

Query block: Can you look up the measured solubility (mole fraction) of O=c1cc(CBr)c2ccccc2[nH]1 for me?
Result block: 1.5e-05

---

- run_parameters: in ethanol, 303.15 K
result_type: solubility (mole fraction)
One number for each entry.

Query block: Can you look up the measured solubility (mole fraction) of O=c1cc(CBr)c2ccccc2[nH]1 for me?
Result block: 0.000301

---

- run_parameters: in 1,4-dioxane, 313.15 K
result_type: solubility (mole fraction)
Give bare numbers.

Query block: Can you look up the measured solubility (mole fraction) of O=c1cc(CBr)c2ccccc2[nH]1 for me?
Result block: 0.00137

---

- run_parameters: in methanol, 283.15 K
result_type: solubility (mole fraction)
Answers are plain numbers.

Query block: Can you look up the measured solubility (mole fraction) of O=c1cc(CBr)c2ccccc2[nH]1 for me?
Result block: 0.000146

---

- run_parameters: in 2-butanone, 283.15 K
result_type: solubility (mole fraction)
One number for each entry.

Query block: Can you look up the measured solubility (mole fraction) of O=c1cc(CBr)c2ccccc2[nH]1 for me?
Result block: 0.000408

---

- run_parameters: in n-butanol, 298.15 K
result_type: solubility (mole fraction)

Query block: Can you look up the measured solubility (mole fraction) of O=c1cc(CBr)c2ccccc2[nH]1 for me?
Result block: 0.000425

---

- run_parameters: in acetonitrile, 293.15 K
result_type: solubility (mole fraction)
Numbers only.

Query block: Can you look up the measured solubility (mole fraction) of O=c1cc(CBr)c2ccccc2[nH]1 for me?
Result block: 0.000134

---

- run_parameters: in isopropanol, 273.15 K
result_type: solubility (mole fraction)
Answers are plain numbers.

Query block: Can you look up the measured solubility (mole fraction) of O=c1cc(CBr)c2ccccc2[nH]1 for me?
Result block: 0.000136

---

- run_parameters: in DMF, 308.15 K
result_type: solubility (mole fraction)
Answers are plain numbers.

Query block: Can you look up the measured solubility (mole fraction) of O=c1cc(CBr)c2ccccc2[nH]1 for me?
Result block: 0.00729

---

- run_parameters: in n-butanol, 283.15 K
result_type: solubility (mole fraction)
Numbers only.

Query block: Can you look up the measured solubility (mole fraction) of O=c1cc(CBr)c2ccccc2[nH]1 for me?
Result block: 0.000333

---

- run_parameters: in toluene, 298.15 K
result_type: solubility (mole fraction)
Answers are plain numbers.

Query block: Can you look up the measured solubility (mole fraction) of O=c1cc(CBr)c2ccccc2[nH]1 for me?
Result block: 3.8e-05

src = BigSolDB 2.1
